METHOD_DESCRIPTION: yeast display, Sf9 membrane polyspecificity reagent, FACS + sequencing; frameworks hold sequencing errors
MEASURED_ATTRIBUTE: polyreactivity (PSR sort gate)

1) QVQLVESGGGLVQAGGSLRLSCAASGRTFKYNAMGWYRQAPGKERELVAAISDRGTRKYYADSVKGRFTISRDNAKNSVYLQMNSLKPEDTAVYYCAARVTGKDRWYIYYWGQGTQVTVSS : high polyreactivity
2) QVQLVETGGGLVQAGGSLRLSCAASGSIFLYYAMGWYRQAHGKERELVAAITSGGSTNYADSVKGRFTISRDNAKNTVYLQMNSLKPEDTAVYYCAARHPYRFWGQGTKVTVSS : high polyreactivity
3) QVQLVESGGGLVQAGGSLRLSCAASGSIFTYTMGGYRQAPGKERELVATISRTGSTNYADSVKGRFTISRDNAKNTVYLQMNSLKPEDTAVYYCSKGAYITGAWPFYELITPYAYWGQGTQVTVSS : high polyreactivity
4) QVQLVESGGCLVQAGGSLSLSCAASGRIFGAYAMGWYRQAPGTERELVAAISSGGSTYYADSVKGRFTISRDNAKNTVYLQMNSLKPEDTAVYYCAASSGNGYGYWGQGTQVTVSS : high polyreactivity
